Data origin: PubChem BioAssay

- Test system: Sonic hedgehog protein (Shh)
- test.description: small-molecule binders of Shh protein, primary screen, biochemical, small-molecule microarray, 635/667 nm fluorescence (AID 1151);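 also: Shh protein binding to compounds spotted on small-molecule microarray slides; score combines spot fluorescence intensity with signal-to-noise across triplicate slides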
- measurement.conditions: small-molecule microarray binding, 635 nm fluorescence; higher = more signal
# key: entry, value: composite z-score
Reply briefly: the number, and no unit.

[Q] # returns recorded composite z-score (system: Sonic hedgehog protein (Shh)) for C=CCC(OC(C)=O)[C@@H]1[C@@H](N(Cc2cccc3ccccc23)C(=O)Cc2ccc(F)cc2)c2cc(OCCCO)ccc2N1C(=O)c1ccc2ccccc2n1 (some centres undefined)
[A] -0.0199

[Q] # returns recorded composite z-score (system: Sonic hedgehog protein (Shh)) for `O=C1O[C@@H](c2ccccc2)[C@@H](c2ccccc2)N2[C@@H](c3ccc(OCCO)cc3)[C@]3(C(=O)Nc4ccccc43)[C@@H](C(=O)O)[C@H]12`
[A] 0.301

[Q] # returns recorded composite z-score (system: Sonic hedgehog protein (Shh)) for CN1C(=O)C2C=CC(C(O)C#Cc3ccccc3)N(Nc3ccccc3)C2C1=O (centres undefined)
[A] 0.592

[Q] # returns recorded composite z-score (system: Sonic hedgehog protein (Shh)) for `COC(=O)[C@H](Cc1ccccc1)N1CC(/C=C/C2CC2)=C[C@H]1[C@H](O)Cc1ccccc1`
[A] 0.593
